src = the supplement of paper PMC10567573

Experiment: protein stability index of a GFP-peptide fusion (GPS, HEK-293T) (PSI 1-6); higher = more stable;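 note: 24-mer peptide tiles fused after GFP, lentivirally expressed, FACS-sorted into six equal bins by GFP/DsRed ratio, decoded by Illumina sequencing, PSI is the read-weighted mean bin number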
Conditions: treatment: DMSO; c terminus: a fixed tail appended
READOUT_LABEL: protein stability index
Form field (numeric): enter value without unit.

Prompt: Using the record for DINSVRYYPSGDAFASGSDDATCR [GNB5] , report its protein stability index.
Completion: 4.03

Prompt: Which protein stability index value belongs to DSCDRLTQSWSSQSSFNSLQRVPS [ETS1] ?
Completion: 3.99

Others:
Prompt: Can you look up the measured protein stability index of DGKCAYRASYSDGKLKAPPKPCAG [MLH1] for me?
Completion: 4.11
